B1: MATN2 (parent)
chain: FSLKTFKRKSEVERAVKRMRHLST

Variants of: B1
Experimental Protocol: protein stability index of a GFP-peptide fusion (GPS, HEK-293T) (PSI 1-6); higher = more stable;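 further: lentivirally expressed fusions sorted by FACS into six bins by GFP to DsRed ratio, PSI derived from sequencing read proportions per bin multiplied by bin number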
Reported Conditions: c terminus: a fixed tail appended
Readout Kind: protein stability index
# answer = number (no unit)

>  <Mutations>
L3S

>  <protein stability index>
2.45

$$$$

Lab note: `V16R` gave protein stability index of 2.48

Lab note: `R14F` gave protein stability index of 2.65

Lab note: `F1L` gave protein stability index of 2.19

Lab note: `R18Q` gave protein stability index of 1.93

Lab note: `F6Y` gave protein stability index of 3.29

Lab note: `K17R` gave protein stability index of 1.87

Lab note: `S10F` gave protein stability index of 1.77

Lab note: `R8N` gave protein stability index of 2.17

Lab note: `R18F` gave protein stability index of 1.54

Lab note: `F1N` gave protein stability index of 3.33

Lab note: `S23R` gave protein stability index of 2.35

Lab note: `V16P` gave protein stability index of 2.33
